# TARGET_ENTITY: Peroxisome proliferator-activated receptor delta (Homo sapiens) (UniProt Q03181)
# Sequence (Q03181 whole entry, looked up): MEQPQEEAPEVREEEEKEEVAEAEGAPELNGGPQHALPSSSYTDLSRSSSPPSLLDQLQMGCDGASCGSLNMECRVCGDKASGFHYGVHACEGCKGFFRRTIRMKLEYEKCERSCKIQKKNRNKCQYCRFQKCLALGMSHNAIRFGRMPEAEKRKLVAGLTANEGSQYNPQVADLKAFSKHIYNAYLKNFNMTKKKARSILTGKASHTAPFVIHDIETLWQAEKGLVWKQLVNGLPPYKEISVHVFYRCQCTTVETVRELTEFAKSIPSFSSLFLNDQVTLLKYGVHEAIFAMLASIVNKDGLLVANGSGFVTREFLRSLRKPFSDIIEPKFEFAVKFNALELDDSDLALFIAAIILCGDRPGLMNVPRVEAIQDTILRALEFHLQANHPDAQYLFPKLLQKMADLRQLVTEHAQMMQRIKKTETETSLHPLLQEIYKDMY
# EXPERIMENT_DESCRIPTION: qHTS assay to identify small molecule agonists of the peroxisome proliferator-activated receptor delta (PPARd) signaling pathway (AID 743212);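 note: HEK293H cells with PPARd UAS beta-lactamase reporter GeneBLAzer system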
# ASSAY_CONDITIONS: HEK293H PPARd-UAS-bla, beta-lactamase FRET ratio, 17 h; series mostly up to 62.6 µM
Inconclusive results are not listed. Active and inactive are the calls of the source. Calls come from the whole dose curve.
Outcomes: active, inactive

| MOLECULE | CATEGORY |
| --- | --- |
| CNC(=O)O/N=C(\C)C(C)S(C)(=O)=O (configuration not stated) | inactive |
| c1csc(-c2ccc(-c3cccs3)s2)c1 | active |
| CC1(C)C(C=C(Cl)Cl)C1C(=O)OC(C#N)c1ccc(F)c(Oc2ccccc2)c1 (configuration not stated) | inactive |
| COc1ccc(Cc2nccc3cc(OC)c(OC)cc23)cc1OC | inactive |
| ClCBr | inactive |
| CC(C)NCC(O)c1ccccc1Cl (configuration not stated) | inactive |
| CCNS(=O)(=O)C(F)(F)C(F)(F)C(F)(F)C(F)(F)C(F)(F)C(F)(F)C(F)(F)C(F)(F)F | inactive |
| CC(Cc1ccc2c(c1)OCO2)NO (configuration not stated) | inactive |
| BrCC(Br)(Br)Br | inactive |
| ClC1(Cl)C2(Cl)C3(Cl)C4(Cl)C(Cl)(Cl)C5(Cl)C3(Cl)C1(Cl)C5(Cl)C24Cl (configuration not stated) | inactive |
| ClC(Cl)C(Cl)(Cl)Cl | inactive |
| CCC(C)Br (configuration not stated) | inactive |
| ClC1=C(Cl)[C@]2(Cl)[C@H]3[C@H]([C@@H]4C=C[C@H]3C4)[C@@]1(Cl)C2(Cl)Cl | inactive |
| COc1c2c(cc3c1OCO3)CCN(C)C2 | inactive |
| CCN(CC)CCc1c[nH]c2ccccc12 | inactive |
| O=[N+]([O-])c1cccc2cccc([N+](=O)[O-])c12 | inactive |
| CCC1COC(Cn2cncn2)(c2ccc(Cl)cc2Cl)O1 (configuration not stated) | inactive |
| CN1C2CCC(C)(C)C1CC(OC(=O)C(O)(c1cccs1)c1cccs1)C2 (configuration not stated) | inactive |
| COc1ccc2c(c1OC)C(=O)O[C@@H]2[C@H]1c2cc3c(cc2CCN1C)OCO3 | inactive |
| N#Cc1c[nH]cc1-c1cccc2c1OC(F)(F)O2 | inactive |
| CC(C)=CCN1CC[C@@]2(C)c3cc(O)ccc3C[C@@H]1[C@@H]2C | inactive |
| CNC(C)(C)Cc1ccccc1 | inactive |
| c1ccc(Nc2ccc(Nc3ccccc3)cc2)cc1 | inactive |
| O=C(Nc1ccc(F)cc1F)c1cccnc1Oc1cccc(C(F)(F)F)c1 | inactive |
| COP(=S)(OC)Oc1ccc([N+](=O)[O-])c(C)c1 | inactive |
| C=CCOC(=O)c1ccccc1N | inactive |
| O=C(NC(=O)c1ccccc1Cl)Nc1ccc(OC(F)(F)F)cc1 | inactive |
